# Tested on: Wnt5a (protein binding on small-molecule microarray)
# test-description: Wnt5a binders on small-molecule microarray, primary screen, biophysical, 635/667 nm fluorescence (AID 1142);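 also: fluorescence read at 667 nm with signal to noise per printed feature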
# run-conditions: 635 nm fluorescence, higher = more signal
endpoint-label: composite z-score
Give the figure only, with no unit attached.

Ask: Please give the measured composite z-score for this molecule: CN(C)CCCC[C@@H]1NC(=O)[C@@H]2C[C@H](C(=O)O)[C@H](c3cccc(OCCO)c3)N2C1=O
Result: 0.471

Ask: Please give the measured composite z-score for this molecule: COc1ccc(NC(=O)O[C@H]2[C@@H]3OC(=O)[C@H](Cc4cccc(Br)c4)C/C=C/C[C@@H](Cc4cccc(Br)c4)C(=O)O[C@H]3[C@@H](OC)O[C@@H]2CO)cc1
Result: 0.232

Ask: Please give the measured composite z-score for this molecule: CCOC(=O)C[C@H]1[C@H](OC(=O)c2cc3ccccc3oc2=O)[C@@H](NC(=O)c2ccc3ccccc3c2)c2cc(OCCCO)ccc2N1C(=O)Cc1ccc(OC)cc1
Result: 0.174

Ask: Please give the measured composite z-score for this molecule: O=C(N1CCOCC1)[C@@]1(CCS(=O)(=O)c2ccccc2)N=C(c2ccc(OCCCO)cc2)O[C@H]1c1ccccc1
Result: 0.465

Ask: Please give the measured composite z-score for this molecule: COCCOC(=O)N1C(=O)[C@@]2(c3ccccc31)[C@H](c1ccccc1OCCO)N1[C@H](c3ccccc3)[C@H](c3ccccc3)OC(=O)[C@H]1[C@@H]2C(N)=O
Result: 0.408

Ask: Please give the measured composite z-score for this molecule: COCCOC(=O)N1C(=O)[C@@]2(c3ccccc31)[C@H](c1ccccc1OCCO)N1[C@H](c3ccccc3)[C@H](c3ccccc3)OC(=O)[C@H]1[C@@H]2C(=O)N1CCCCCCC1
Result: 1.82

###

Exercise: for every item that follows, state its recorded z-score.
# test-description: S. cerevisiae RM11-1a growth modifiers, primary screen, strain RM11-1a, OD600, basal, 24 h (AID 1177);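 also: cultures grown under basal conditions with no added stressor; test concentration not given here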
# run-conditions: OD600, 24 h, higher = more signal, called active from +8 up or from −8 down
Give the figure only, with no unit attached.

Ask: Please give the measured z-score for this compound: O=C(O)[C@@H]1C[C@@H]2C(=O)N3CCC[C@H]3C(=O)N2[C@@H]1c1cccc(OCCO)c1
Result: 0.0761

Ask: Please give the measured z-score for this compound: CCN(CC)c1ccc(N2CC=CC34O[C@@H]5/C=C\CCC(C)OC(=O)C5[C@H]3C(=O)N(C(C)CO)[C@@H]4C2=O)cc1 (some centres undefined)
Result: 0.507

Ask: Please give the measured z-score for this compound: O=C(O)[C@H]1C[C@H]2C(=O)N[C@@H](Cc3ccccc3)C(=O)N2[C@H]1c1cccc(OCCO)c1
Result: -0.655

Ask: Please give the measured z-score for this compound: CCOC(=O)C1=CCC(c2ccco2)N(S(=O)(=O)c2ccc(C)cc2)C1 (centres undefined)
Result: -0.749

###

# target-entity: Torsin-1A (Homo sapiens) (UniProt O14656)
# Sequence (O14656 whole entry, looked up): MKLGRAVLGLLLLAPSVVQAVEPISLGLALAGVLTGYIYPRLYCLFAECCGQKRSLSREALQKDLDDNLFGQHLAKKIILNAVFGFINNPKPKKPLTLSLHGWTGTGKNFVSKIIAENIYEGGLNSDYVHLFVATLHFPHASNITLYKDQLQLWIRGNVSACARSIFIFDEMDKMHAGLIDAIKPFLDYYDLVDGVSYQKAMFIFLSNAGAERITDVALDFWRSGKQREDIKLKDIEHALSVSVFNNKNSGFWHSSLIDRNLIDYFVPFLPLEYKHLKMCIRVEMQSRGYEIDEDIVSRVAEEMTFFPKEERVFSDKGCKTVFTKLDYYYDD
# test-description: small-molecule binders of mutant TOR1A in lysate, primary screen, cell lysate, small-molecule microarray, COS7 lysate, 635/667 nm fluorescence (AID 1150);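 also: score pools 667 nm emission and signal to noise measuring lysate protein binding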
# run-conditions: COS7 hTOR1A mutant lysate, 635 nm fluorescence, higher = more signal
endpoint-label: composite z-score
Give the figure only, with no unit attached.

Ask: Lookup: composite z-score / Torsin-1A (Homo sapiens) (UniProt O14656) / C=CCC(OC(C)=O)[C@@H]1[C@@H](N(Cc2cccc3ccccc23)C(=O)c2ccc(-c3ccccc3)cc2)c2cc(OCCCO)ccc2N1C(=O)c1ccc(-c2ccccc2)cc1 (stereo partly specified)
Result: 0.0809

Ask: Lookup: composite z-score / Torsin-1A (Homo sapiens) (UniProt O14656) / COCCOC(=O)N1C(=O)[C@@]2(c3cc(C#CCC(C(=O)OC)C(=O)OC)ccc31)[C@H](c1ccc(OCCO)cc1)N1[C@H](c3ccccc3)[C@H](c3ccccc3)OC(=O)[C@H]1[C@@H]2C(=O)Nc1nc2ccccc2s1
Result: 0.264

Ask: Lookup: composite z-score / Torsin-1A (Homo sapiens) (UniProt O14656) / CCCCC(=O)N(CCN1CCOCC1)[C@@H]1CC(C(=O)NCCO)=C[C@H](Oc2c(I)cc(CO)cc2OC)[C@H]1O
Result: -0.0203

Ask: Lookup: composite z-score / Torsin-1A (Homo sapiens) (UniProt O14656) / CC(C)C(=C=CC[C@H](O)c1cccc(OCCO)c1)CCO
Result: 0.15

Ask: Lookup: composite z-score / Torsin-1A (Homo sapiens) (UniProt O14656) / COc1ccc([Si](C)(C)[C@@H]2[C@@H](CCn3cc([C@H](O)c4ccccc4)nn3)O[C@]3(C(=O)N(c4ccccc4)c4ccccc43)[C@H]2C)cc1
Result: 0.283

Ask: Lookup: composite z-score / Torsin-1A (Homo sapiens) (UniProt O14656) / C=CCC(OC(C)=O)[C@@H]1[C@@H](N(Cc2cc3ccccc3o2)C(=O)c2ccc(-c3ccccc3)cc2)c2cc(OCCCO)ccc2N1C(=O)Cc1ccc(OC)cc1 (stereo partly specified)
Result: -0.324

###

Exercise: for every item that follows, state its recorded composite z-score.
# target-entity: Focal adhesion kinase 1 (Homo sapiens) (UniProt Q05397)
# Sequence (Q05397 whole entry, looked up): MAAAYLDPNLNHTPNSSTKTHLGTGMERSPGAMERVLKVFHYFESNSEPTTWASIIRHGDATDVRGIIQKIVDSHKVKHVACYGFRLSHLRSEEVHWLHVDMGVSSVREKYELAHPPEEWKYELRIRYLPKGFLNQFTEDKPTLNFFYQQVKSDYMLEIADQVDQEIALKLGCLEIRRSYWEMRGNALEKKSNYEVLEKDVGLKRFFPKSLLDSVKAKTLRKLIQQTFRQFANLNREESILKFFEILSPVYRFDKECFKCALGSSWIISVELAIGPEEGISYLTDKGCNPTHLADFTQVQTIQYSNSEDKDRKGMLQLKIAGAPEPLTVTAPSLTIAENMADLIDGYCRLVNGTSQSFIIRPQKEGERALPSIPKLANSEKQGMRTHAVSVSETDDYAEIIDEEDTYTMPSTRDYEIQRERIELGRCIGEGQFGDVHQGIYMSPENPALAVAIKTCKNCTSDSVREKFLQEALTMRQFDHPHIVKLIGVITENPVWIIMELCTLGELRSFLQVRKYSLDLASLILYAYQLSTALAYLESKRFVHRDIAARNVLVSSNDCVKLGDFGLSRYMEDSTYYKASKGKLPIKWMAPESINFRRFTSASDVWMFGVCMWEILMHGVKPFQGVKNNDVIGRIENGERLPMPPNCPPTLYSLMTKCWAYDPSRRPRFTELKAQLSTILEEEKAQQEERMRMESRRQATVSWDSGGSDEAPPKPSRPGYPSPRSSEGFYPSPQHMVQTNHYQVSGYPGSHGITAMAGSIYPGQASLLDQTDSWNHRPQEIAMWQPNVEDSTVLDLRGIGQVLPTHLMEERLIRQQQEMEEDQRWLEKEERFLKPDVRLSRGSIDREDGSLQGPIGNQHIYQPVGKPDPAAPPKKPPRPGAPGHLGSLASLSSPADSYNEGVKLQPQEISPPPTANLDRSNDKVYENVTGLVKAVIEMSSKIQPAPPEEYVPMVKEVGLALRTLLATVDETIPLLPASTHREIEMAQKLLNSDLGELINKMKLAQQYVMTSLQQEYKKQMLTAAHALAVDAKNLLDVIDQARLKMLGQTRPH
# test-description: small-molecule microarray binders of FAK, primary screen, biochemical, 635/667 nm fluorescence, BSA, DTT (AID 1130);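 also: composite of spot emission at 667 nm and signal to noise over triplicate slides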
# run-conditions: PTK2 binding, 635 nm fluorescence, higher = more signal
Give the figure only, with no unit attached.

Ask: Lookup: composite z-score / Focal adhesion kinase 1 (Homo sapiens) (UniProt Q05397) / [N-]=[N+]=Nc1ccccc1C[C@]1(C(=O)O)N=C(c2ccc(OCCCO)cc2)O[C@H]1c1ccccc1N=[N+]=[N-]
Result: 0.507

Ask: Lookup: composite z-score / Focal adhesion kinase 1 (Homo sapiens) (UniProt Q05397) / CCOC(=O)C1=CCC(c2ccco2)N(S(=O)(=O)c2ccc(C)cc2)C1 (stereo not drawn)
Result: 0.841

Ask: Lookup: composite z-score / Focal adhesion kinase 1 (Homo sapiens) (UniProt Q05397) / Cc1ccc(S[C@]2(C(=O)NC(C)C)CC(=O)N(C(C)C)[C@@H]2c2ccc(CO)cc2I)cc1
Result: 1.58

Ask: Lookup: composite z-score / Focal adhesion kinase 1 (Homo sapiens) (UniProt Q05397) / COc1cc(C(O)C2C=CC3C(=O)N(Cc4ccccc4)C(=O)C3N2n2cnnc2)cc(OC)c1OC (stereo not drawn)
Result: 0.498

Ask: Lookup: composite z-score / Focal adhesion kinase 1 (Homo sapiens) (UniProt Q05397) / COCCOC(=O)N1C(=O)[C@@]2(c3cc(C#CCC(C(=O)OC)C(=O)OC)ccc31)[C@H](c1ccc(OCCO)cc1)N1[C@H](c3ccccc3)[C@H](c3ccccc3)OC(=O)[C@H]1[C@@H]2C(=O)Nc1nc2ccccc2s1
Result: -0.14

Ask: Lookup: composite z-score / Focal adhesion kinase 1 (Homo sapiens) (UniProt Q05397) / CN1C(=O)[C@@H]2[C@@H](CC(COc3ccccc3)=C([C@H](O)CCc3ccccc3)[C@@H]2CO)C1=O
Result: -0.147

Ask: Lookup: composite z-score / Focal adhesion kinase 1 (Homo sapiens) (UniProt Q05397) / CCCCC(=C=CC[C@H](O)c1ccc(OCCO)cc1)C[C@H](O)COCc1ccccc1
Result: 0.477

Ask: Lookup: composite z-score / Focal adhesion kinase 1 (Homo sapiens) (UniProt Q05397) / CC1(C)C(=O)C(c2ccccc2)=C2CN3C(=O)N(CCc4ccccc4)C(=O)C3(Cc3ccc(C(F)(F)F)cc3)C=C21 (stereo not drawn)
Result: 1.32

Ask: Lookup: composite z-score / Focal adhesion kinase 1 (Homo sapiens) (UniProt Q05397) / C=CCNC(=O)[C@@H]1[C@H]2C(=O)O[C@H](c3ccccc3)[C@H](c3ccccc3)N2[C@H](c2ccc(O)cc2)[C@@]12C(=O)N(C(=O)OCCOC)c1ccc(C#CCCO)cc12
Result: 0.863

Ask: Lookup: composite z-score / Focal adhesion kinase 1 (Homo sapiens) (UniProt Q05397) / CN1C(=O)C2C=CC(C(O)c3ccc(F)cc3)N(NC(=O)OC(C)(C)C)C2C1=O (stereo not drawn)
Result: 0.22

Ask: Lookup: composite z-score / Focal adhesion kinase 1 (Homo sapiens) (UniProt Q05397) / COCCOC(=O)N1C(=O)[C@@]2(c3ccccc31)[C@H](c1ccccc1OCCO)N1[C@H](c3ccccc3)[C@H](c3ccccc3)OC(=O)[C@H]1[C@@H]2C(N)=O
Result: 0.502

Ask: Lookup: composite z-score / Focal adhesion kinase 1 (Homo sapiens) (UniProt Q05397) / COc1ccc([Si](C)(C)[C@H]2[C@H](CCO)O[C@@]3(C(=O)N(Cc4ccccc4)c4ccc(N5C(=O)c6ccccc6Oc6ccccc65)cc43)[C@@H]2C)cc1
Result: -0.21

Ask: Lookup: composite z-score / Focal adhesion kinase 1 (Homo sapiens) (UniProt Q05397) / COCCOC(=O)N1C(=O)[C@@]2(c3cc(C#CC4=CCCCC4)ccc31)[C@H](C(=O)N1CCCCCCC1)[C@H]1C(=O)O[C@H](c3ccccc3)[C@H](c3ccccc3)N1[C@@H]2c1ccc(OCCO)cc1
Result: 0.605

Ask: Lookup: composite z-score / Focal adhesion kinase 1 (Homo sapiens) (UniProt Q05397) / O=C1OCCC/C=C\[C@H]2OC34C=CCN(c5ccc6ccccc6c5)C(=O)[C@H]3N(CCCO)C(=O)[C@@H]4C12 (stereo partly drawn)
Result: 0.984

Ask: Lookup: composite z-score / Focal adhesion kinase 1 (Homo sapiens) (UniProt Q05397) / COCCOC(=O)N1C(=O)[C@@]2(c3cc(C#CC4(O)CCCCCC4)ccc31)[C@H](C(=O)N1CCN(c3ncccn3)CC1)[C@H]1C(=O)O[C@H](c3ccccc3)[C@H](c3ccccc3)N1[C@@H]2c1ccccc1OCCO
Result: 1.1

Ask: Lookup: composite z-score / Focal adhesion kinase 1 (Homo sapiens) (UniProt Q05397) / C=C(CCCC)C(=O)CC[C@H](OC(=O)c1ccccc1-c1ccccc1C(=O)O)c1ccccc1OCCO
Result: -0.218

Ask: Lookup: composite z-score / Focal adhesion kinase 1 (Homo sapiens) (UniProt Q05397) / COCCOC(=O)N1C(=O)[C@@]2(c3cc(C#Cc4ccc(OC)cc4)ccc31)[C@H](C(=O)NC[C@H](O)c1ccccc1)[C@H]1C(=O)O[C@H](c3ccccc3)[C@H](c3ccccc3)N1[C@@H]2c1ccc(OCCO)cc1
Result: -0.103

Ask: Lookup: composite z-score / Focal adhesion kinase 1 (Homo sapiens) (UniProt Q05397) / CN1C(=O)C2C=CC(C(O)c3cc(C(F)(F)F)cc(C(F)(F)F)c3)N(NC(=O)OC(C)(C)C)C2C1=O (stereo not drawn)
Result: 0.753

Ask: Lookup: composite z-score / Focal adhesion kinase 1 (Homo sapiens) (UniProt Q05397) / COCCOC(=O)N1C(=O)[C@@]2(c3cc(C#CCCO)ccc31)[C@H](c1ccccc1OCCO)N1[C@H](c3ccccc3)[C@H](c3ccccc3)OC(=O)[C@H]1[C@@H]2C(=O)N1CCCCCCC1
Result: 0.624

Ask: Lookup: composite z-score / Focal adhesion kinase 1 (Homo sapiens) (UniProt Q05397) / O=C1C2C=CC(C(O)c3cccc(O)c3)N(Nc3ccccc3)C2C(=O)N1c1ccccc1 (stereo not drawn)
Result: 0.0964

Ask: Lookup: composite z-score / Focal adhesion kinase 1 (Homo sapiens) (UniProt Q05397) / CC(=O)NCCCC[C@@H]1NC(=O)[C@@H]2C[C@H](C(=O)NCCCCCCN)[C@H](c3cccc(OCCO)c3)N2C1=O
Result: 0.367

Ask: Lookup: composite z-score / Focal adhesion kinase 1 (Homo sapiens) (UniProt Q05397) / Cc1ccc(F)cc1S(=O)(=O)N[C@@H]1CCN(Cc2cccc3[nH]ccc23)C1
Result: -0.271

Ask: Lookup: composite z-score / Focal adhesion kinase 1 (Homo sapiens) (UniProt Q05397) / C=C(/C(=C/C[C@@H](OC(C)=O)c1ccc(CO)o1)c1cc(C(=O)OC)ccc1OC)C(C)C
Result: 0.571
